Would you mind telling me the reported Emax of each entry?
Target: NMDAR2B (Homo sapiens, UniProt Q13224)
Construct: expressed in transfected cells; host or cells: HEK cells (membrane extract)
Sequence (Q13224 27-1484, species assumed, other chains not shown): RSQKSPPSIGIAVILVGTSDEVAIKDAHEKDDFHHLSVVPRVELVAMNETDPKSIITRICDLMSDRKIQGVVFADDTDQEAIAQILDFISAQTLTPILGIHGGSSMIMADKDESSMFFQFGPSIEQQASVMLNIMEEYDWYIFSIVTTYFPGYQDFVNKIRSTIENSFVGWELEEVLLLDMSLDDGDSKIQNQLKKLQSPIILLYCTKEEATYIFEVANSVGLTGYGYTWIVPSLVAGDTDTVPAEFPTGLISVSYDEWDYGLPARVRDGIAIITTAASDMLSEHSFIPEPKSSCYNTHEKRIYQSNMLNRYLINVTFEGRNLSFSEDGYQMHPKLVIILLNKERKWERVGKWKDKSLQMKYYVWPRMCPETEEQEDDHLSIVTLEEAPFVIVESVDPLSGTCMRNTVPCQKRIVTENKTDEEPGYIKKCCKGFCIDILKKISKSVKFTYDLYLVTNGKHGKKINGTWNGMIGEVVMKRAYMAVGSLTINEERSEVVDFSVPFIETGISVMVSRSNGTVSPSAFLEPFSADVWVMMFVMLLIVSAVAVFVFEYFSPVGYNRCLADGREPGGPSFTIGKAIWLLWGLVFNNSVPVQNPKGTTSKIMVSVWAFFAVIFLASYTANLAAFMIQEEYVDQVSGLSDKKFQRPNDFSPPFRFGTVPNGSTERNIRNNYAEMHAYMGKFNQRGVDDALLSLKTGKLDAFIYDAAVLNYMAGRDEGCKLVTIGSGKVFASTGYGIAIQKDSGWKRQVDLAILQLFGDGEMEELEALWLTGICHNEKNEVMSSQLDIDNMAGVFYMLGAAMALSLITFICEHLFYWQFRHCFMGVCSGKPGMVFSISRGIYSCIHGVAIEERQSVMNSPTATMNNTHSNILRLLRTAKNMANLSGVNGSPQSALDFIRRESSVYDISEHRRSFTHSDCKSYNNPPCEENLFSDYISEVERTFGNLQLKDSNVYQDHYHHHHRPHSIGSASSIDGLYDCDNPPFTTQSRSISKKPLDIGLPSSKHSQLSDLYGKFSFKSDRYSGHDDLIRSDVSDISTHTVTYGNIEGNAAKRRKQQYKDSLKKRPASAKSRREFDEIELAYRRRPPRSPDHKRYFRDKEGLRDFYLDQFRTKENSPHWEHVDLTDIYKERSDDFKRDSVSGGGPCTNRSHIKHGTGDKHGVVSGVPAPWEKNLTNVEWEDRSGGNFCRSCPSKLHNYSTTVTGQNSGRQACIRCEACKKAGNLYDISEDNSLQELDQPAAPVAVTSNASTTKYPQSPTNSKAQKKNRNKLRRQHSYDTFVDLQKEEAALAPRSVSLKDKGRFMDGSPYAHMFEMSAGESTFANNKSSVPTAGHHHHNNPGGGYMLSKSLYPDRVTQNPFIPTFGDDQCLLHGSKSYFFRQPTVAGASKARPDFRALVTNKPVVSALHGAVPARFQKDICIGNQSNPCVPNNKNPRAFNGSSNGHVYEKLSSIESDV
Experiment: [3H]MK-801 binding, NMDAR2B expressing HEK cell membranes
Type: biochemical
Conditions: 50 μM glutamate, read-out: NMDAR2B A: % maximal [3H]MK-801 binding relative to 1 mM glycine

*Q* # Emax lookup, item CN1CCN(Cc2ccccc2)C2(CCNC2=O)C1 (stereo not drawn)
*A* < 100%

*Q* Please answer likewise for C[C@@H](O)[C@H](N)C(=O)N1CCN(C(=O)OC(C)(C)C)CC12CNC2=O (single isomer, unassigned) [EC-1]
*A* 0%

*Q* Please answer likewise for CN1CCN(C(=O)OC(C)(C)C)CC12CN(CC(N)=O)C2=O (stereo not drawn)
*A* < 100%

*Q* Please answer likewise for C[C@@H](O)[C@H](N)C(=O)N1CCN(C(=O)OC(C)(C)C)CC12CNC2=O (stereo partly drawn) [EC-2]
*A* > 100%

*Q* Please answer likewise for O=C1NCCC12CNCCN2 (stereo not drawn)
*A* < 100%

*Q* Please answer likewise for C[C@@H](O)[C@H](N)C(=O)N1CCNC2(CCNC2=O)C1 (stereo partly drawn)
*A* < 100%

*Q* Please answer likewise for CC(C)(C)OC(=O)N1CCN(C(=O)OC(C)(C)C)C2(CNC2=O)C1 (single isomer, unassigned)
*A* < 100%

*Q* Please answer likewise for CN1CCNC2(CNC2=O)C1 (stereo not drawn)
*A* < 100%

*Q* Please answer likewise for C[C@@H](O)[C@H](N)C(=O)N1CCN(Cc2ccccc2)C2(CNC2=O)C1 (single isomer, unassigned)
*A* < 100%

----------
Experiment: Oral pharmacokinetics (plasma, brain, CSF)
Settings: Sprague Dawley, rat, plasma, po, 10 mg/kg, AUClast, per os, normal saline (compounds marked * in 1% NMP and 99% normal saline)
endpoint: log10 AUC(0-t) (log10 of the value in ng·h/mL)
# values: log10(AUC(0-t)), units ng·h/mL

*Q* # log10 AUC(0-t) lookup, item CN1CCN(Cc2ccccc2)C2(CCNC2=O)C1 (stereo not drawn) [ES-316]
*A* 3.48

*Q* Please answer likewise for CC(C)C(=O)N1CCN(Cc2ccccc2)C2(CCNC2=O)C1 (stereo not drawn) [ES-321]
*A* 2.67

*Q* Please answer likewise for C[C@@H](O)[C@H](N)C(=O)N1CCNC2(CCNC2=O)C1 (stereo partly drawn) [ES-336]
*A* 3.99

*Q* Please answer likewise for O=C1NCCC12CNCCN2 (stereo not drawn) [ES-302]
*A* 3.02

*Q* Please answer likewise for CC(C)(C)OC(=O)N1CCNC2(C1)CN(CC(N)=O)C2=O (stereo not drawn) [ER-141]
*A* 3.42

*Q* Please answer likewise for CC(=O)N1CCN(Cc2ccccc2)C2(CCNC2=O)C1 (stereo not drawn) [ES-319]
*A* 3.81

----------
Biological target: NMDAR2B (Homo sapiens, UniProt Q13224)
Construct: expressed in transfected cells; host or cells: HEK cells (membrane extract)
Experiment: [3H]MK-801 binding, NMDAR2B expressing HEK cell membranes
Assay type: biochemical
Conditions: 50 μM glutamate, read-out: NMDAR2B B: log EC50 (converted)
endpoint: EC50

*Q* # EC50 lookup, item CC(C)(C)OC(=O)N1CCNC2(CNC2=O)C1 (single isomer, unassigned) [EB-2]
*A* > 1 nM

*Q* Please answer likewise for O=C1NCC12CN(Cc1ccccc1)CCN2Cc1ccccc1 (single isomer, unassigned) [EA-1]
*A* < 1 nM

*Q* Please answer likewise for O=C1NCCC12CNCCN2 (stereo not shown) [ES-302]
*A* < 1 nM

*Q* Please answer likewise for CC(C)(C)OC(=O)N1CCNC2(CCNC2=O)C1 (single isomer, unassigned) [EM]
*A* > 1 nM

*Q* Please answer likewise for O=C1NCCC12CNCCN2 (stereo not shown) [ES-301]
*A* < 1 nM

*Q* Please answer likewise for C[C@@H](O)[C@H](N)C(=O)N1CCN(Cc2ccccc2)C2(CNC2=O)C1 (single isomer, unassigned) [EL-1]
*A* < 1 nM

*Q* Please answer likewise for CN1CCN(C(=O)OC(C)(C)C)CC12CN(CC(N)=O)C2=O (stereo not shown) [ER-118]
*A* < 1 nM

*Q* Please answer likewise for O=C1NCC12CNCCN2Cc1ccccc1 (single isomer, unassigned) [ED-2]
*A* < 1 nM

*Q* Please answer likewise for CN1CCNC2(CNC2=O)C1 (stereo not shown) [EH-1]
*A* < 1 nM

*Q* Please answer likewise for CC(C)(C)OC(=O)N1CCN(C(=O)OC(C)(C)C)C2(CNC2=O)C1 (single isomer, unassigned) [EE-1]
*A* < 1 nM

----------
Biological target: NMDAR2A (Homo sapiens, UniProt Q12879)
Construct: expressed in transfected cells; host or cells: HEK cells (membrane extract)
Sequence (Q12879 23-1464, species assumed, other chains not shown): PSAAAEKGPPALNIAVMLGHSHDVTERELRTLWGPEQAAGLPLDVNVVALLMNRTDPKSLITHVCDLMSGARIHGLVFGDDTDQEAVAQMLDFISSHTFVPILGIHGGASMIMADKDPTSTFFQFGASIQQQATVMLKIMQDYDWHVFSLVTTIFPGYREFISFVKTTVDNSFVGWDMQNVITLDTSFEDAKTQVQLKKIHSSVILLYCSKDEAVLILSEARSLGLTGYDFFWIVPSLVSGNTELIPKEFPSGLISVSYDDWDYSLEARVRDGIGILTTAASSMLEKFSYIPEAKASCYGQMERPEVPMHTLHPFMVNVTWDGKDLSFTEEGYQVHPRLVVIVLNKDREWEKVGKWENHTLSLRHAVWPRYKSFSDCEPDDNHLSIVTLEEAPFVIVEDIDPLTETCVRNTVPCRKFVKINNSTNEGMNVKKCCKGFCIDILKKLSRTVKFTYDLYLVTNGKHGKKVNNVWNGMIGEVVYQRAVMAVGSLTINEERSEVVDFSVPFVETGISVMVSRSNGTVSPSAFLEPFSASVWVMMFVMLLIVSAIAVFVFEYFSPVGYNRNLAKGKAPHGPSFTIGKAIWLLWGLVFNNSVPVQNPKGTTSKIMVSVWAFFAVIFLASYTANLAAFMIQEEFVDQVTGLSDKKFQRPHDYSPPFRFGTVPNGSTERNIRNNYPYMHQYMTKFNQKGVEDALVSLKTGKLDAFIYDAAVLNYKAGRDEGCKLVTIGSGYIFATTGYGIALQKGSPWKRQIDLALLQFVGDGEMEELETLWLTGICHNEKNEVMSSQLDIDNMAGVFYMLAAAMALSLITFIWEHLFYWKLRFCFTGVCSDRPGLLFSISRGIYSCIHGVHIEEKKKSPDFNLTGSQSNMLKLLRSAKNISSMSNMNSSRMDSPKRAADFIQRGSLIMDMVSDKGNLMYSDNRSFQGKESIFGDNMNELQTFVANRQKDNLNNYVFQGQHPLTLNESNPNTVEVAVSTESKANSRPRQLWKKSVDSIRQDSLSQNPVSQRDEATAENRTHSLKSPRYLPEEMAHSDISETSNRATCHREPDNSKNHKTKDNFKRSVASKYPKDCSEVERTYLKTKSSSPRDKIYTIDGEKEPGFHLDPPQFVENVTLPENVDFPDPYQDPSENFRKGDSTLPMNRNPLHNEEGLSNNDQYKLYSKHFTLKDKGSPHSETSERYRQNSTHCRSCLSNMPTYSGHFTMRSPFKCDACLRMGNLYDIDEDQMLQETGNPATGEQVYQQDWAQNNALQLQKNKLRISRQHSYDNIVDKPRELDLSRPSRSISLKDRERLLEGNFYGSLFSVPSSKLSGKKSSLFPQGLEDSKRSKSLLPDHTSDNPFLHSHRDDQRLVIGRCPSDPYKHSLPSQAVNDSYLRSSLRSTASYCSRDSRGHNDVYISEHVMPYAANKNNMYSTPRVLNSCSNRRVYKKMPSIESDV
Assay: [3H]MK-801 binding, NMDAR2A expressing HEK cell membranes
Assay type: biochemical
Conditions: 50 μM glutamate, read-out: NMDAR2A B: log EC50 (converted)
endpoint: EC50

*Q* # EC50 lookup, item CC(C)(C)OC(=O)N1CCNC2(C1)CN(CC(N)=O)C2=O (stereo not shown)
*A* < 1 nM

*Q* Please answer likewise for CN1CCNC2(CNC2=O)C1 (stereo not shown) [EH-2]
*A* < 1 nM

*Q* Please answer likewise for C[C@@H](O)[C@H](N)C(=O)N1CCNC2(CCNC2=O)C1 (stereo partly shown) [ES-335]
*A* < 1 nM

*Q* Please answer likewise for CN1CCNC2(CNC2=O)C1 (stereo not shown) [EH-1]
*A* < 1 nM

*Q* Please answer likewise for CN1CCN(Cc2ccccc2)C2(CCNC2=O)C1 (stereo not shown)
*A* < 1 nM

*Q* Please answer likewise for C[C@@H](O)[C@H](N)C(=O)N1CCNC2(CNC2=O)C1 (single isomer, unassigned) [EK-2]
*A* > 1 nM

*Q* Please answer likewise for CN1CCN(Cc2ccccc2)C2(CNC2=O)C1 (single isomer, unassigned)
*A* < 1 nM

*Q* Please answer likewise for CC(C)C(=O)N1CCN(Cc2ccccc2)C2(CCNC2=O)C1 (stereo not shown)
*A* > 1 nM

*Q* Please answer likewise for C[C@@H](O)[C@H](N)C(=O)N1CCNC2(CCNC2=O)C1 (stereo partly shown) [ES-336]
*A* < 1 nM

*Q* Please answer likewise for CC(C)(C)OC(=O)N1CCNC2(CNC2=O)C1 (single isomer, unassigned) [EB-1]
*A* < 1 nM

----------
Molecular target: NMDAR2B (Homo sapiens, UniProt Q13224)
Construct: expressed in transfected cells; host or cells: HEK cells (membrane extract)
Experiment: [3H]MK-801 binding, NMDAR2B expressing HEK cell membranes
Assay type: biochemical
Conditions: 50 μM glutamate
endpoint: NMDAR2B A: % maximal [3H]MK-801 binding relative to 1 mM glycine

For orientation, consider the following solved cases.
CN1CCN(Cc2ccccc2)C2(CNC2=O)C1 (single isomer, unassigned) [EG-1]: + (<100%=+)
CC(C)(C)OC(=O)N1CCNC2(C1)CN(CC(N)=O)C2=O (stereo not drawn) [ER-141]: + (<100%=+)
O=C1NCCC12CNCCN2 (stereo not drawn): ++ (>100%=++)
O=C1NCC12CN(Cc1ccccc1)CCN2Cc1ccccc1 (single isomer, unassigned) [EA-2]: − (−=0)
CN1CCN(Cc2ccccc2)C2(CNC2=O)C1 (single isomer, unassigned) [EG-2]: − (−=0)
CC(C)(C)OC(=O)N1CCNC2(CNC2=O)C1 (single isomer, unassigned) [EB-2]: + (<100%=+)
CC(C)(C)OC(=O)N1CCNC2(CCNC2=O)C1 (single isomer, unassigned) [EM]: ++ (>100%=++)
C[C@@H](O)[C@H](N)C(=O)N1CCNC2(CNC2=O)C1 (single isomer, unassigned) [EK-1]: − (−=0)
CC(C)C(=O)N1CCN(Cc2ccccc2)C2(CCNC2=O)C1 (stereo not drawn) [ES-321]: ++ (>100%=++)
O=C1NCC12CNCCN2Cc1ccccc1 (single isomer, unassigned) [ED-1]: − (−=0)

*Q* # NMDAR2B A: % maximal [3H]MK-801 binding relative to 1 mM glycine lookup, item C[C@@H](O)[C@H](N)C(=O)N1CCNC2(CNC2=O)C1 (single isomer, unassigned) [EK-2]
*A* + (<100%=+)

*Q* Please answer likewise for CC(C)(C)OC(=O)N1CCNC2(CNC2=O)C1 (single isomer, unassigned) [EB-1]
*A* − (−=0)

*Q* Please answer likewise for CC(C)(C)OC(=O)N1CCNC2(C1)CN(CC(N)=O)C2=O (stereo not drawn) [ER-142]
*A* − (−=0)

*Q* Please answer likewise for CC(C)(C)OC(=O)N1CCNC2(CCNC2=O)C1 (single isomer, unassigned) [EN]
*A* − (−=0)

*Q* Please answer likewise for CN1CCN(C(=O)OC(C)(C)C)CC12CN(CC(N)=O)C2=O (stereo not drawn)
*A* + (<100%=+)

*Q* Please answer likewise for CC(=O)N1CCN(Cc2ccccc2)C2(CCNC2=O)C1 (stereo not drawn) [ES-319]
*A* + (<100%=+)

*Q* Please answer likewise for CC(C)(C)OC(=O)N1CCN(C(=O)OC(C)(C)C)C2(CNC2=O)C1 (single isomer, unassigned)
*A* + (<100%=+)

*Q* Please answer likewise for O=C1NCC12CN(Cc1ccccc1)CCN2Cc1ccccc1 (single isomer, unassigned) [EA-1]
*A* + (<100%=+)

*Q* Please answer likewise for CN1CCN(Cc2ccccc2)C2(CCNC2=O)C1 (stereo not drawn)
*A* + (<100%=+)

*Q* Please answer likewise for C[C@@H](O)[C@H](N)C(=O)N1CCNC2(CCNC2=O)C1 (stereo partly drawn)
*A* + (<100%=+)

*Q* Please answer likewise for CC(C)C(=O)N1CCN(Cc2ccccc2)C2(CCNC2=O)C1 (stereo not drawn) [ES-322]
*A* − (−=0)

*Q* Please answer likewise for O=C1NCC12CNCCN2Cc1ccccc1 (single isomer, unassigned) [ED-2]
*A* + (<100%=+)

*Q* Please answer likewise for CN1CCNC2(CNC2=O)C1 (stereo not drawn)
*A* + (<100%=+)

*Q* Please answer likewise for CC(=O)N1CCN(Cc2ccccc2)C2(CCNC2=O)C1 (stereo not drawn) [ES-320]
*A* − (−=0)
